Hey, just so you know, these numbers are from paper PMC3372685.

biological target: zebrafish muscle α1β1bεδ nAChR (Danio rerio, UniProt A2BG85+G1FMP8+Q75XT1+Q98880); conditions: read-out: Peak current IC50; α1β1bεδ, co-application with 30 µM ACh
Sequence (Q98880 21-456): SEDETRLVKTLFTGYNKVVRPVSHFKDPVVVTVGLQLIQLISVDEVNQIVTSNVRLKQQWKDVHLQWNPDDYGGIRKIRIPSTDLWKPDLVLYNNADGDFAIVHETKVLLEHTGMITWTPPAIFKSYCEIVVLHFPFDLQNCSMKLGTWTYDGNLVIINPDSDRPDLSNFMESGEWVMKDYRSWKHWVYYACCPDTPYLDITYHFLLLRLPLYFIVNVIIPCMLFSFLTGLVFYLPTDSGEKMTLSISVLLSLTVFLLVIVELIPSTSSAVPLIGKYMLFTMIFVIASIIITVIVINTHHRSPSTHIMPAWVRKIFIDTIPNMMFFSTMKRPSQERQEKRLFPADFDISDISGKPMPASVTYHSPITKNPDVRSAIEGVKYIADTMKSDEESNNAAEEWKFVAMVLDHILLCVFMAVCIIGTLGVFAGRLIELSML
Sequence (G1FMP8 23-492): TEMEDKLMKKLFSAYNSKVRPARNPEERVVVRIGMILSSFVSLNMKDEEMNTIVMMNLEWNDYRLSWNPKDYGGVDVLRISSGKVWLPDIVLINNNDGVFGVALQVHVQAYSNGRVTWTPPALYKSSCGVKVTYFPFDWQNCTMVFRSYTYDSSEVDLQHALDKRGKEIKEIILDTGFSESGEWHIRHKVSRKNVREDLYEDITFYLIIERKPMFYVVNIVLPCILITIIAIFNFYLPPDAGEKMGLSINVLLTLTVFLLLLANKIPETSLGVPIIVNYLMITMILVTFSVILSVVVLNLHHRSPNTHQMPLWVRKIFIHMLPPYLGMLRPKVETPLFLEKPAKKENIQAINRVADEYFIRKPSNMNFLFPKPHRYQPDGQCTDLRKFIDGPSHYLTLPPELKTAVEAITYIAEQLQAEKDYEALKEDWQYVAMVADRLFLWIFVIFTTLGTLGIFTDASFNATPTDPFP
Sequence (A2BG85 27-517): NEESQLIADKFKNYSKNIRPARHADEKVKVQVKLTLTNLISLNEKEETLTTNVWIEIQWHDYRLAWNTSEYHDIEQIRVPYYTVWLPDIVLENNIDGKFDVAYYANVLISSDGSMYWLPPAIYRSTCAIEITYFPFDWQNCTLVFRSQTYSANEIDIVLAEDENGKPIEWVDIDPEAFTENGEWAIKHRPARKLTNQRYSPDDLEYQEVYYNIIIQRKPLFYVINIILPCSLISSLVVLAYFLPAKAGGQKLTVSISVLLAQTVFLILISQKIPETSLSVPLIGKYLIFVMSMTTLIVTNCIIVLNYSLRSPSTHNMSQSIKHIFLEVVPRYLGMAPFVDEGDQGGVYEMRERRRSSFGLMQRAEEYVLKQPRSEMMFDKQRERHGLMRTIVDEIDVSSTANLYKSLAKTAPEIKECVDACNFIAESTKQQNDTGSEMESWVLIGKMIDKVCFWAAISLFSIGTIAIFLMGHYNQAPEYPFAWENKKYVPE
Sequence (Q75XT1 22-518): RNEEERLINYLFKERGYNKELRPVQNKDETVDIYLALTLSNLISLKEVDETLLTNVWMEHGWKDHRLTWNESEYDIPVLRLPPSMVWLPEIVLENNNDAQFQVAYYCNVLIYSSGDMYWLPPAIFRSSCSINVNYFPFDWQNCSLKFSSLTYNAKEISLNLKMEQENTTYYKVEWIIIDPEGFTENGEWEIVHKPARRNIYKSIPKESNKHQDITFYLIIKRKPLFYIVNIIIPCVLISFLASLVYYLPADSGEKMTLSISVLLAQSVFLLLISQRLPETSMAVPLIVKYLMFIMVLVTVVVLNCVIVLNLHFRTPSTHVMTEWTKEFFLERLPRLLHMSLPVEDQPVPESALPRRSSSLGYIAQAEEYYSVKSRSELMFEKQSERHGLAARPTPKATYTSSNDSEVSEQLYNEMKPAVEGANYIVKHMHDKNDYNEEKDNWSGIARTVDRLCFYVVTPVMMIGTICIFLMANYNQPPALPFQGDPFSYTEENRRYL
property_measured: IC50 (nM)
# number only, unit nM dropped from output

// query So what does the record say about IC50 for CNC1(C)C2CCC(C2)C1(C)C (stereo not shown) ?
// result 1800

###

biological target: zebrafish muscle α1β1bεδ nAChR (Danio rerio, UniProt A2BG85+G1FMP8+Q75XT1+Q98880); conditions: read-out: Net charge IC50; α1β1bεδ, co-application with 30 µM ACh
property_measured: IC50 (µM)
# number only, unit µM dropped from output

// query So what does the record say about IC50 for CNC1(C)C2CCC(C2)C1(C)C (stereo not shown) ?
// result 0.6
